Catalogue of IC50 values
SYSTEM: Peroxisome proliferator-activated receptor alpha (Homo sapiens, UniProt Q07869)
Sequence (Q07869 whole entry, the tested form may be a part): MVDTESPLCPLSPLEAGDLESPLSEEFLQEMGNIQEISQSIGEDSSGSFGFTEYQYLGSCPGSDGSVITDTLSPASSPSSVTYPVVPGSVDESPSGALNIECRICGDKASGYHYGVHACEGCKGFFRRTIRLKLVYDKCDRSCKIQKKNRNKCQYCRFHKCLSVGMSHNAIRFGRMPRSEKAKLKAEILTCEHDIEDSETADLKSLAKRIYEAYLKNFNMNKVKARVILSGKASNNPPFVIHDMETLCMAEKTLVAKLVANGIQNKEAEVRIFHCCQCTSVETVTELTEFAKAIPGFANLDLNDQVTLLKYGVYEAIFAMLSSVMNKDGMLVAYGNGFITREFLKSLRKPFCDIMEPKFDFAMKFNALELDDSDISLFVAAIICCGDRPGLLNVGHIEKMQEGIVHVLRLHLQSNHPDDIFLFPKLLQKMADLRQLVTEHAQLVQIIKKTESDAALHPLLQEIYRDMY
EXPERIMENT: Displacement of fluorescein labeled ligand from PPARalpha receptor by fluorescence polarization assay
Response body: numeric value in nM, unit text excluded.

Please review the entries below; each comes with its answer.
>>> test_result("Cc1oc(-c2ccccc2)nc1CCOc1cccc(CN(CC(=O)O)Cc2ccccc2)c1")
90
>>> test_result("Cc1oc(-c2ccccc2)nc1CCOc1cccc(CN(CC(=O)O)Cc2cc3ccccc3[nH]2)c1")
246
>>> test_result("CCCCCCCN(CCc1ccc(O[C@@](C)(CC)C(=O)O)cc1)C(=O)Nc1ccc(F)cc1F")
348

May I ask what IC50 has been recorded for Cc1oc(-c2ccccc2)nc1CCOc1ccc(CN(CC(=O)O)Cc2ccc3ccccc3c2)cc1 ? 680

Endpoint output: IC50 of Cc1oc(-c2ccccc2)nc1CCOc1ccc(CN(CC(=O)O)Cc2ccc(-c3ccccc3Cl)o2)cc1 . Value? 1800

Field request: IC50 | item: Cc1oc(-c2ccccc2)nc1CCOc1cccc(CN(CCCc2ccccc2)CC(=O)O)c1 51

I'd like to know its IC50. The molecule in question is Cc1oc(-c2ccccc2)nc1CCOc1ccc(CN(CC(=O)O)Cc2ccc(OCc3ccccc3)cc2)cc1 1050

So what's the measured IC50 for this one? Cc1oc(-c2ccccc2)nc1CCOc1ccc(CN(CC(=O)O)Cc2cccc(Oc3ccccc3)c2)cc1 88

Reported IC50, molecule Cc1oc(-c2ccccc2)nc1CCOc1ccc(CN(CC(=O)O)Cc2ccc(Oc3ccccc3)cc2)cc1 : ____ 970

###

Reported values of IC50 for individual entries
SYSTEM: Peroxisome proliferator-activated receptor gamma (Homo sapiens, UniProt P37231)
Sequence (P37231 whole entry): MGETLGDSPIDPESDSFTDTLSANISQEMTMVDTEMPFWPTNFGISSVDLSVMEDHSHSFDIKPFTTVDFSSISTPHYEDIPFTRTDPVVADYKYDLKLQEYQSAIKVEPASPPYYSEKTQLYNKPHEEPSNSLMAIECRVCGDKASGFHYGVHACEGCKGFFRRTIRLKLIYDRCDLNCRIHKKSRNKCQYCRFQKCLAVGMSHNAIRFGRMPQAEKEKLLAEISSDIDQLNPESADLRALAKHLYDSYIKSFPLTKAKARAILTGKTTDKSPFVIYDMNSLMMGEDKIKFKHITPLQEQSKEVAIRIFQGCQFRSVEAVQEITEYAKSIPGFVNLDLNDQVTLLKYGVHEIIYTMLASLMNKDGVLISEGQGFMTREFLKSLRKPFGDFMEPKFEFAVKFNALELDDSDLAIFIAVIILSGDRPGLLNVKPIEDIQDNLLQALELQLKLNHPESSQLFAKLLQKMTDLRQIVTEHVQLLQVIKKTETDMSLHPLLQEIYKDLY
EXPERIMENT: Displacement of fluorescein labeled ligand from PPARgamma receptor by fluorescence polarization assay
# output: bare number, implied unit nM

>>> test_result("Cc1oc(-c2ccccc2)nc1CCOc1cccc(CN(CC(=O)O)Cc2ccc(OCc3ccccc3)cc2)c1")
183
>>> test_result("Cc1oc(-c2ccccc2)nc1CCOc1cccc(CN(CC(=O)O)Cc2ccc(Oc3ccccc3)cc2)c1")
230
>>> test_result("Cc1oc(-c2ccccc2)nc1CCOc1ccc(CN(CC(=O)O)Cc2ccc(Oc3ccccc3)cc2)cc1")
227
>>> test_result("CCCCCCCN(CC(=O)O)Cc1ccc(OCCc2nc(-c3ccccc3)oc2C)cc1")
2300
>>> test_result("Cc1oc(-c2ccccc2)nc1CCOc1ccc(CN(CC(=O)O)Cc2ccc3ccccc3c2)cc1")
1210

Give IC50 (Peroxisome proliferator-activated receptor gamma (Homo sapiens, UniProt P37231)) of the following molecule: Cc1oc(-c2ccccc2)nc1CCOc1ccc(CN(CC(=O)O)Cc2ccccn2)cc1 2900

Give the reported IC50 for Cc1oc(-c2ccccc2)nc1CCOc1cccc(CN(CC(=O)O)Cc2ccccc2)c1 (system: Peroxisome proliferator-activated receptor gamma (Homo sapiens, UniProt P37231)). 240

###

SYSTEM: Peroxisome proliferator-activated receptor alpha (Homo sapiens)
EXPERIMENT: Agonist activity at PPARalpha receptor expressed in HEK293 cells by GAL4 transactivation assay
ASSAY READOUT: EC50 (nM)
Value expressed in nM; do not type the unit.

>>> test_result("Cc1oc(-c2ccccc2)nc1CCOc1ccc(CN(CC(=O)O)Cc2ccc(-c3ccccc3Cl)o2)cc1")
871
>>> test_result("Cc1oc(-c2ccccc2)nc1CCOc1ccc(CN(CC(=O)O)Cc2cccc3ccccc23)cc1")
21
>>> test_result("Cc1oc(-c2ccccc2)nc1CCOc1ccc(CN(CC(=O)O)Cc2ccc3c(c2)OCO3)cc1")
128

Continue with the compound presented below.
Checklist item: EC50 tested on Peroxisome proliferator-activated receptor alpha (Homo sapiens), entry Cc1oc(-c2ccccc2)nc1CCOc1ccc(CN(CC(=O)O)Cc2ccccc2)cc1 , value? 4020

###

EC50 overview
SYSTEM: Peroxisome proliferator-activated receptor gamma (Homo sapiens, UniProt P37231)
# unit: nM | format: bare number

Use these answered entries as a reference point.
>>> test_result("Cc1oc(-c2ccccc2)nc1CCOc1cccc(CN(CC(=O)O)Cc2ccc3ccccc3c2)c1")
1390
>>> test_result("Cc1oc(-c2ccccc2)nc1CCOc1ccc(CN(CCOCc2ccccc2)CC(=O)O)cc1")
1180

Next molecule, EC50 to be filled in.
Quick check: EC50 of Cc1oc(-c2ccccc2)nc1CCOc1ccc(CN(CC(=O)O)Cc2ccc3ccccc3c2)cc1 ? 1210

###

Items are presented alongside their recorded log10 EC50.
SYSTEM: Peroxisome proliferator-activated receptor alpha (Homo sapiens, UniProt Q07869)
EXPERIMENT: Agonist activity at PPARalpha receptor expressed in HEK293 cells by GAL4 transactivation assay
Log10 applied to EC50; unit prior to transform: nM.

>>> test_result("Cc1oc(-c2ccccc2)nc1CCOc1cccc(CN(CCc2ccccc2)CC(=O)O)c1")
1.64

Hi! What's the reported log10 EC50 for Cc1oc(-c2ccccc2)nc1CCOc1cccc(CN(CC(=O)O)Cc2ccccc2)c1 on Peroxisome proliferator-activated receptor alpha (Homo sapiens, UniProt Q07869)? 1.34

Record CCCCCCCN(CCc1ccc(O[C@@](C)(CC)C(=O)O)cc1)C(=O)Nc1ccc(F)cc1F : what is its log10 EC50 with Peroxisome proliferator-activated receptor alpha (Homo sapiens, UniProt Q07869)? 1.85

Return log10 EC50 measured with Peroxisome proliferator-activated receptor alpha (Homo sapiens, UniProt Q07869) given this molecule: Cc1oc(-c2ccccc2)nc1CCOc1ccc(CN(CC(=O)O)Cc2cccc(Oc3ccccc3)c2)cc1 0.60

What value of log10 EC50 on Peroxisome proliferator-activated receptor alpha (Homo sapiens, UniProt Q07869) does Cc1oc(-c2ccccc2)nc1CCOc1ccc(CN(CC(=O)O)Cc2ccc(OCc3ccccc3)cc2)cc1 have? 2.28

###

SYSTEM: Peroxisome proliferator-activated receptor gamma (Homo sapiens)
EXPERIMENT: Displacement of fluorescein labeled ligand from PPARgamma receptor by fluorescence polarization assay
ASSAY READOUT: IC50
Reply with the number and its unit after it.

>>> test_result("Cc1oc(-c2ccccc2)nc1CCOc1ccc(CN(CCOCc2ccccc2)CC(=O)O)cc1")
"4560 nM"
>>> test_result("Cc1oc(-c2ccccc2)nc1CCOc1ccc(CN(CC(=O)O)Cc2cccc3ccccc23)cc1")
"767 nM"
>>> test_result("Cc1oc(-c2ccccc2)nc1CCOc1cccc(CN(CC(=O)O)Cc2cccc(Oc3ccccc3)c2)c1")
"110 nM"
>>> test_result("Cc1oc(-c2ccccc2)nc1CCOc1cccc(CN(CC(=O)O)Cc2cc3ccccc3[nH]2)c1")
"540 nM"
>>> test_result("Cc1oc(-c2ccccc2)nc1CCOc1ccc(CN(CC(=O)O)Cc2ccccc2)cc1")
"1770 nM"

Let's switch to this molecule now.
Give its IC50 value. Item: Cc1oc(-c2ccccc2)nc1CCOc1cccc(CN(CCCc2ccccc2)CC(=O)O)c1 773 nM

###

SYSTEM: Peroxisome proliferator-activated receptor alpha (Homo sapiens, UniProt Q07869)
EXPERIMENT: Agonist activity at PPARalpha receptor expressed in HEK293 cells by GAL4 transactivation assay
Catalogue of EC50 readings, one per entry.
// return numeric value only (unit: µM, not printed)

Some entries whose results are on file:
>>> test_result("Cc1oc(-c2ccccc2)nc1CCOc1cccc(CN(CC(=O)O)Cc2cccc3ccccc23)c1")
0.005
>>> test_result("Cc1oc(-c2ccccc2)nc1CCOc1ccc(CN(CC(=O)O)Cc2ccccn2)cc1")
0.692
>>> test_result("Cc1oc(-c2ccccc2)nc1CCOc1cccc(CN(CC(=O)O)Cc2ccc(OCc3ccccc3)cc2)c1")
0.324
>>> test_result("Cc1oc(-c2ccccc2)nc1CCOc1ccc(CN(CCOCc2ccccc2)CC(=O)O)cc1")
0.726

Record request: EC50 value, item Cc1oc(-c2ccccc2)nc1CCOc1cccc(CN(CC(=O)O)Cc2ccc3ccccc3c2)c1 0.313

###

SYSTEM: Peroxisome proliferator-activated receptor gamma (Homo sapiens)
EXPERIMENT: Displacement of fluorescein labeled ligand from PPARgamma receptor by fluorescence polarization assay
ASSAY READOUT: IC50 (nM)
Answer in nM, number only, no unit symbol.

Which IC50 is reported for this molecule? Cc1oc(-c2ccccc2)nc1CCOc1cccc(CN(CC(=O)O)Cc2cccc3ccccc23)c1 67

What measured IC50 goes with Cc1oc(-c2ccccc2)nc1CCOc1ccc(CN(CC(=O)O)Cc2cccc(Oc3ccccc3)c2)cc1 ? 480

What does the data say about its IC50? Entry: CCCCCCCN(CCc1ccc(O[C@@](C)(CC)C(=O)O)cc1)C(=O)Nc1ccc(F)cc1F 670
